# Test system: 22RV1
# EXPERIMENTAL DETAILS: IC50 assay by Western blot (APH-treated cells), 22RV1
# Type: cell-based
# CONDITION DETAILS: 22RV1 cells, lowest dose tested
PARAMETER: PALD (Percent Activity at Lowest Dose tested) 22RV1

>  <COMPOUND>
CC1(O)CCCCCCOc2c(CN)cccc2NC(=O)c2nc(cnc2N)-c2ccc(cc2)S(=O)(=O)C(C)(C)C1 (racemic)

>  <ENDPOINT RESULT>
(90%)

$$$$
>  <COMPOUND>
CNCc1ccc(-c2cc(-c3nc(-c4ccc(S(=O)(=O)C(C)C)cc4)cnc3N)on2)cc1 [VE822, reference compound]

>  <ENDPOINT RESULT>
(86%)

$$$$
>  <COMPOUND>
CNCc1cccc2c1OCCCCCC[C@@H](O)CC(C)(C)S(=O)(=O)c1ccc(cc1)-c1cnc(N)c(n1)C(=O)N2 (single isomer, unassigned)

>  <ENDPOINT RESULT>
(86%)

$$$$

----------
# Tested on: HCT116 Bcl/xl
# EXPERIMENTAL DETAILS: IC50 assay by Western blot (APH-treated cells), HCT116 Bcl/xl
# Format: cell-based
# CONDITION DETAILS: Homo sapiens, HCT-116
# Description: E. Treatment of Cells for IC50 Assay by Western Blot The compound is stored as a 1 mM stock solution prepared in accordance with the Receipt of Compound SOP. The stock solution is diluted in cell media in two separate 1:10 dilution series. 1. Arrange twelve 15-mL centrifuge tubes in a rack in two series and label them in accordance with Dilutions Series 1 and Dilution Series 2 shown in Table 1 and Table 2, respectively. 2. […]
// values below are reported pIC50
Note on units: pIC50 is unitless, being -log10 of a concentration expressed in mol/L.

>  <COMPOUND>
CN(C)Cc1cccc2c1OCCCCCCC(O)CC(C)(C)S(=O)(=O)c1ccc(cc1)-c1cnc(N)c(n1)C(=O)N2 (stereo not drawn)

>  <pIC50>
7.90

$$$$

Give pIC50 for CC1(C)C[C@@](C)(O)CCCCCCOc2c(CN)cccc2NC(=O)c2nc(cnc2N)-c2ccc(cc2)S1(=O)=O (single isomer, unassigned)
8.34

Give pIC50 for C[C@@H]1COCCN1c1cc(C2([S@](C)(=N)=O)CC2)nc(-c2cc[nH]c3nccc2-3)n1 [AZD 6738, reference compound]
7.24

Give pIC50 for CNCc1cccc2c1OCCCCCC[C@](C)(O)CC(C)(C)S(=O)(=O)c1ccc(cc1)-c1cnc(N)c(n1)C(=O)N2 (single isomer, unassigned)
8.57

Give pIC50 for CNCc1cccc2c1OCCCCCC[C@H](O)CC(C)(C)S(=O)(=O)c1ccc(cc1)-c1cnc(N)c(n1)C(=O)N2 (single isomer, unassigned)
8.11

Give pIC50 for CC1(O)CCCCCCOc2c(CN)cccc2NC(=O)c2nc(cnc2N)-c2ccc(cc2)S(=O)(=O)C(C)(C)C1 (racemic)
8.69

Give pIC50 for CNCc1cccc2c1OCCCCCCC(C)(O)CC1(CC1)S(=O)(=O)c1ccc(cc1)-c1cnc(N)c(n1)C(=O)N2 (racemic)
8.33

Give pIC50 for CNCc1cccc2c1OCCCCCC[C@@](C)(O)CC(C)(C)S(=O)(=O)c1ccc(cc1)-c1cnc(N)c(n1)C(=O)N2 (single isomer, unassigned)
8.64

Give pIC50 for CNCc1cccc2c1OCCCCCC[C@@H](O)CC(C)(C)S(=O)(=O)c1ccc(cc1)-c1cnc(N)c(n1)C(=O)N2 (single isomer, unassigned)
8.10

Give pIC50 for CC1(C)C[C@H](O)CCCCCCOc2c(CN)cccc2NC(=O)c2nc(cnc2N)-c2ccc(cc2)S1(=O)=O (single isomer, unassigned)
8.19

Give pIC50 for CN(C)Cc1cccc2c1OCCCCCCC(C)(O)CC1(CC1)S(=O)(=O)c1ccc(cc1)-c1cnc(N)c(n1)C(=O)N2 (stereo not drawn)
7.85

Give pIC50 for CC1(C)C[C@@H](O)CCCCCCOc2c(CN)cccc2NC(=O)c2nc(cnc2N)-c2ccc(cc2)S1(=O)=O (single isomer, unassigned)
8.35

Recorded values, source patent US20250243220A1.
